Would you kindly list Ki for each of these compounds?
# TARGET UNDER TEST: Substance-K receptor (Homo sapiens, UniProt P21452)
# Sequence (P21452 whole entry): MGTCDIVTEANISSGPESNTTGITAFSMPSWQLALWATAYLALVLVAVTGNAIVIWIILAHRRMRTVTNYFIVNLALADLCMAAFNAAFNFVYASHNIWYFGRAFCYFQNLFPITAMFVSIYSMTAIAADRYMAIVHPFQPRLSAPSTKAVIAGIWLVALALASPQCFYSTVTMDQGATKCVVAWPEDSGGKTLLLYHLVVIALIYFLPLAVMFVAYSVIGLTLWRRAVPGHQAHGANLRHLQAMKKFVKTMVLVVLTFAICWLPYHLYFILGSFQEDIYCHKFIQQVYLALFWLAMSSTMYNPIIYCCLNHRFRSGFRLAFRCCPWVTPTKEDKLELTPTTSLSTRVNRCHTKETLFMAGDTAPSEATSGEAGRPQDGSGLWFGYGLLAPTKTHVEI
# ASSAY NAME: Displacement of [125I]neurokinin A from human NK2 receptor expressed in CHOK1 cells
# Format: cell-based, CHO-K1

Task: Item under review: "O=C1C[C@@H](N2CCNCC2)C(=O)NC[C@@H](Cc2ccccc2)NC(=O)[C@H](Cc2ccccc2)NC(=O)[C@H](Cc2c[nH]c3ccccc23)N1" . Reported Ki?
Result: 1.58 nM (antagonist)

Task: Item under review: "CC(=O)N[C@@H](CN[C@@H]1CC(=O)N[C@@H](Cc2c[nH]c3ccccc23)C(=O)N[C@@H](Cc2ccccc2)C(=O)N[C@H](Cc2ccccc2)CNC1=O)[C@@H](O)[C@H](O)[C@H](O)CO" . Reported Ki?
Result: 2 nM (antagonist)

Task: Item under review: "O=C1C[C@H](NC2CCOCC2)C(=O)NC[C@@H](Cc2ccccc2)NC(=O)[C@H](Cc2ccccc2)NC(=O)[C@H](Cc2c[nH]c3ccccc23)N1" . Reported Ki?
Result: 1 nM (antagonist)

Task: Item under review: CC(=O)N[C@H]1[C@H](NC(=O)CCC(=O)N[C@@H]2CC(=O)N[C@@H](Cc3c[nH]c4ccccc34)C(=O)N[C@@H](Cc3ccccc3)C(=O)N[C@H](Cc3ccccc3)CNC2=O)O[C@H](CO)C(O)[C@@H]1O (single isomer, unassigned) . Reported Ki?
Result: 1.58 nM (antagonist)

Task: Item under review: "CN1CCN(CC(=O)N[C@@H]2CC(=O)N[C@@H](Cc3c[nH]c4ccccc34)C(=O)N[C@@H](Cc3ccccc3)C(=O)N[C@H](Cc3ccccc3)CNC2=O)CC1" . Reported Ki?
Result: 1.58 nM (antagonist)

Task: Item under review: "CN1CCN([C@@H]2CC(=O)N[C@@H](Cc3c[nH]c4ccccc34)C(=O)N[C@@H](Cc3ccccc3)C(=O)N[C@H](Cc3ccccc3)CNC2=O)CC1" . Reported Ki?
Result: 0.398 nM (antagonist)

Task: Item under review: "O=C1C[C@@H](NC(=O)CN2CCC[C@H]2CO)C(=O)NC[C@@H](Cc2ccccc2)NC(=O)[C@H](Cc2ccccc2)NC(=O)[C@H](Cc2c[nH]c3ccccc23)N1" . Reported Ki?
Result: 0.316 nM (antagonist)

Task: Item under review: "O=C1C[C@@H](NC(=O)CN2CCC(N3CCOCC3)CC2)C(=O)NC[C@@H](Cc2ccccc2)NC(=O)[C@H](Cc2ccccc2)NC(=O)[C@H](Cc2c[nH]c3ccccc23)N1" . Reported Ki?
Result: 0.158 nM (antagonist)

Task: Item under review: "O=C1C[C@@H](NC2CCOCC2)C(=O)N[C@@H](Cc2c[nH]c3ccccc23)C(=O)N[C@@H](Cc2ccccc2)C(=O)N[C@H](Cc2ccccc2)CN1" . Reported Ki?
Result: 7.94 nM (antagonist)

Task: Item under review: "O=C1C[C@@H](NC2CCS(=O)(=O)CC2)C(=O)NC[C@@H](Cc2ccccc2)NC(=O)[C@H](Cc2ccccc2)NC(=O)[C@H](Cc2c[nH]c3ccccc23)N1" . Reported Ki?
Result: 0.158 nM (antagonist)

Task: Item under review: "N[C@H]1CC(=O)N[C@@H](Cc2c[nH]c3ccccc23)C(=O)N[C@@H](Cc2ccccc2)C(=O)N[C@H](Cc2ccc(Cl)c(Cl)c2)CNC1=O" . Reported Ki?
Result: 0.2 nM (antagonist)
